Where do the numbers come from? From patent US6989390B2.

- ASSAY_METHOD_TEXT: Minimum amount of water/ethanol (1.5/4 v/v) required to dissolve the crude salt at boil (recrystallization)
- Assay type: physicochemical
- TEST_CONDITIONS: minimum water/ethanol (1.5/4 v/v) to dissolve crude product at boil; salt made by the method in column 2
- Protocol: For comparative purposes, between and among organic salts prepared in this manner and for the purposes of subsequent Example 3, Table 3, crude reaction products were recrystalized from water/ethanol (1.5/4 v/v per gram of salt) using the minimum amount of solvent to effect dissolution at boil. In the case of succinic acid, the organic acid was dispensed as a half-equivalent in order to generate mitonafide hemisuccinate. […] The recrystallized product was then analyzed for purity by HPLC. […]
Where a name gives a salt, the structure may show the parent alone.
The following compounds are listed with their measured Solvent values.
Provide the reading as a plain figure in mL/g.

INSERT INTO results (compound, measurement_units, result) VALUES
  ('CN(C)CCN1C(=O)c2cccc3cc(N)cc(c23)C1=O.O=C(O)C[C@H](O)C(=O)O [Amonafide Malate]', 'mL/g', 7.5),
  ('CN(C)CCN1C(=O)c2cccc3cc(N)cc(c23)C1=O.O=C(O)CCCCC(=O)O [Amonafide Adipate]', 'mL/g', 25),
  ('CN(C)CCN1C(=O)c2cccc3cc(N)cc(c23)C1=O [Amonafide HCl, Amonafide Monohydrochloride, reference compound]', 'mL/g', 40);

Lab note: next compound to report on.
So what's the measured Solvent for this one? CN(C)CCN1C(=O)c2cccc3cc(N)cc(c23)C1=O.CS(=O)(=O)O [Amonafine methanesulfonate, reference compound]
25

---

- System: MCF7 (Breast)
- ASSAY_METHOD_TEXT: Cytotoxic activity in vitro, percent net growth (SRB/MTT)
- Type: cell-based
- TEST_CONDITIONS: MCF7, 48 hours, Percent Net Growth -50%; read-out: LC50 (the source's name)
READOUT_LABEL: CC50 (µM)
Provide the reading as a plain figure in µM.

Provide value of CC50 for this record tested with MCF7 (Breast): CN(C)CCN1C(=O)c2cccc3cc(N)cc(c23)C1=O.O=C(O)C[C@H](O)C(=O)O [Amonafide Malate]
662

---

- Tested on: H460 (Non-Small Cell Lung Cancer)
- ASSAY_METHOD_TEXT: Cytotoxic activity in vitro, percent net growth (SRB/MTT)
- Type: cell-based
- TEST_CONDITIONS: H460, 48 hours, Percent Net Growth -50%; read-out: LC50 (the source's name)
READOUT_LABEL: CC50 (µM)
Provide the reading as a plain figure in µM.

So what's the measured CC50 for this one? CN(C)CCN1C(=O)c2cccc3cc(N)cc(c23)C1=O.O=C(O)C[C@H](O)C(=O)O [Amonafide Malate]
170
